Catalogue of IC50 readings, one per entry.
target: Na^+,K^+ -ATPase (Homo sapiens, UniProt P05023); construct: Na^+,K^+ -ATPase receptor purified according to Jorghensen; from tissue; assay: inhibition of the activity of the purified Na+,K+-ATPase measured as % of hydrolysis of 32P-ATP; format: biochemical; conditions: purified Na+,K+-ATPase, 32P-ATP hydrolysis; read-out: Inhibitory Activity log IC50 (converted)

| smiles-string | target-entity | IC50 (µM) |
| --- | --- | --- |
| C[C@]12CC[C@H]3[C@@H](CCC4=C[C@@H](OCCCNC(=N)N)CC[C@@]43C)[C@@]1(O)CC[C@]2(O)c1ccoc1 | Na^+,K^+ -ATPase (Homo sapiens, UniProt P05023) | 63.1 |
| C[C@]12CC[C@H]3[C@@H](CC=C4C[C@@H](O)CC[C@@]43C)[C@@]1(O)CC[C@]2(O)c1ccco1 | Na^+,K^+ -ATPase (Homo sapiens, UniProt P05023) | 79.4 |
| CNCCO[C@@H]1C=C2CC[C@@H]3[C@H](CC[C@]4(C)[C@@](O)(c5ccoc5)CC[C@]34O)[C@@]2(C)CC1 | Na^+,K^+ -ATPase (Homo sapiens, UniProt P05023) | 50.1 |

Data provenance: patent US5556846A
